Recorded combination Emax by entry
- System: RD (Rhabdomyosarcoma)
- MEASUREMENT_NOTES: combination Emax (second highest fraction inhibited in the dose matrix, 72 h); higher = more inhibition; extreme values may be limits of the assay
QUANTITY_MEASURED: combination Emax

INSERT INTO assay_data (compound, quantity_measured, quantitative_readout) VALUES
  ('CN(CCO)CC[C@H](CSc1ccccc1)Nc1ccc(S(=O)(=O)NC(=O)c2ccc(N3CCC([C@@H](O)c4ccccc4-c4ccc(Cl)cc4)CC3)cc2)cc1S(=O)(=O)C(F)(F)F [AZD4320] + Cc1cc2ncnn2cc1Nc1ncc2c(n1)n(C1CCOCC1)c(=O)n2C [AZD7648] (first compound max 1 µM, 7x7, partner max 10 µM)', 'combination Emax', 0.61),
  ('CN(CCO)CC[C@H](CSc1ccccc1)Nc1ccc(S(=O)(=O)NC(=O)c2ccc(N3CCC([C@@H](O)c4ccccc4-c4ccc(Cl)cc4)CC3)cc2)cc1S(=O)(=O)C(F)(F)F [AZD4320] + C[C@@H]1COCCN1C2=NC(=NC(=C2)C3(CC3)[S@](=N)(=O)C)C4=C5C=CNC5=NC=C4 [AZD6738] (first compound max 1 µM, 7x7, partner max 10 µM)', 'combination Emax', 0.781),
  ('C[C@@H](c1ccc2nccn2c1)n1nnc2ncc(-c3cnn(C)c3)nc21 [Savolitinib] + CN(CC[C@H](CSC1=CC=CC=C1)NC2=C(C=C(C=C2)S(=O)(=O)NC(=O)C3=CC=C(C=C3)N4CCC(CC4)[C@H](C5=CC=CC=C5C6=CC=C(C=C6)Cl)O)S(=O)(=O)C(F)(F)F)CCO [AZD4320] (first compound max 1 µM, 7x7, partner max 1 µM)', 'combination Emax', 0.646),
  ('CC(=O)c1c(C)c2cnc(Nc3ccc(N4CCNCC4)cn3)nc2n(C2CCCC2)c1=O [Palbociclib] + CC1(C)CCC(CN2CCN(c3ccc(C(=O)NS(=O)(=O)c4ccc(NCC5CCOCC5)c([N+](=O)[O-])c4)c(Oc4cnc5[nH]ccc5c4)c3)CC2)=C(c2ccc(Cl)cc2)C1 [Venetoclax] (first compound max 10 µM, 7x7, partner max 1 µM)', 'combination Emax', 0.331),
  ('C=CCn1c(=O)c2cnc(Nc3ccc(N4CCN(C)CC4)cc3)nc2n1-c1cccc(C(C)(C)O)n1 [AZD1775] + O=C(c1cc(Cc2n[nH]c(=O)c3ccccc23)ccc1F)N1CCN(C(=O)C2CC2)CC1 [Olaparib] (first compound max 1 µM, partner max 10 µM)', 'combination Emax', 0.461),
  ('COc1nnc2ccc(N3CCC(c4ccc(OCCN5CCN(C)C(=O)[C@H]5C)cc4)CC3)nn12 [AZD5153] + C=CCn1c(=O)c2cnc(Nc3ccc(N4CCN(C)CC4)cc3)nc2n1-c1cccc(C(C)(C)O)n1 [AZD1775] (first compound max 1 µM, partner max 1 µM)', 'combination Emax', 0.774),
  ('COc1cccc(OCCCN)c1-c1cc(Nc2cnc(C#N)cn2)n[nH]1 [Prexasertib] + C[C@@H]1COCCN1C2=NC(=NC(=C2)C3(CC3)[S@](=N)(=O)C)C4=C5C=CNC5=NC=C4 [AZD6738] (first compound max 1 µM, 7x7, partner max 10 µM)', 'combination Emax', 0.539),
  ('CN(C)CCCOc1ccc(-c2ccc3ncc4c(c3c2)n(C2CCOCC2)c(=O)n4C)cn1 [AZD0156] + CCN(CCO)CCCOc1ccc2c(Nc3cc(CC(=O)Nc4cccc(F)c4)[nH]n3)ncnc2c1 [AZD2811] (first compound max 1 µM, 7x7, partner max 1 µM)', 'combination Emax', 0.0353),
  ('Cc1c2c(nn1C)CSCc1cc(n(C)n1)CSc1cc(c3ccccc3c1)OCCCc1c(C(=O)O)n(C)c3c-2c(Cl)ccc13 [AZD5991] + C[C@@H]1COCCN1C2=NC(=NC(=C2)C3(CC3)[S@](=N)(=O)C)C4=C5C=CNC5=NC=C4 [AZD6738] (first compound max 1 µM, 7x7, partner max 10 µM)', 'combination Emax', 0.739);

The reported numbers originate from the supplement of paper PMC11061612.
